# method_notes: Absorption maximum after colour development in a photographic silver halide layer according to Use Example I
# Type: physicochemical
# conditions_used: pyrazolone coupling agents
# Description: The compounds of the formulae which follow are prepared according to methods which are in themselves known, from the corresponding 4-equivalentcoupling agents (the corresponding compounds with hydrogen in the position marked with *, in place of the substituents drawn). With regard to methods of manufacture, compare DT-OS or DT-AS 1,236,332, 2,043,271, 1,547,672 or 1,187,477. Next to the formula, the absorption maximum in nm is specified in each case (see footnote to Table I). ##SPC8## […]
I'd appreciate it if you could supply Abs.max., first of two maxima (subsidiary maximum) values for the items below.
Respond with the figure and its unit, in that order.

Solved cases below.
CC(C)OP(=O)(CCCOc1cc(OCCCP(=O)(OC(C)C)OC(C)C)cc(C(=O)Nc2cccc(C(=O)NC3=NN(c4c(Cl)cc(Cl)cc4Cl)C(=O)C3)c2)c1)OC(C)C [(240)]	434 nm
CC(C)OP(=O)(CCCCCOc1cc(OCCCCCP(=O)(OC(C)C)OC(C)C)cc(C(=O)Nc2cccc(C(=O)NC3=NN(c4c(Cl)cc(Cl)cc4Cl)C(=O)C3)c2)c1)OC(C)C [(243)]	434 nm
CCCCC(CC)COP(=O)(CCCOc1cc(OCCCP(=O)(OCC(CC)CCCC)OCC(CC)CCCC)cc(C(=O)Nc2ccc(C(=O)NC3=NN(c4c(Cl)cc(Cl)cc4Cl)C(=O)C3)cc2)c1)OCC(CC)CCCC (centres unmarked) [(234)]	434 nm
CCCCC(CC)COP(=O)(CCCOc1cccc(C(=O)Nc2cccc(C(=O)NC3=NN(c4c(C)cc(Cl)cc4Cl)C(=O)C3)c2)c1)OCC(CC)CCCC (centres unmarked) [(269)]	438 nm

Now for the compound whose Abs.max., first of two maxima (subsidiary maximum) we want.
## Task Please give the measured Abs.max., first of two maxima (subsidiary maximum) for this compound: CCCCOP(=O)(CCCOc1cc(OCCCP(=O)(OCCCC)OCCCC)cc(C(=O)NC2=NN(c3c(Cl)cc(Cl)cc3Cl)C(=O)C2)c1)OCCCC [(221)]
## Result 436 nm

---

Give measured Abs.max., first of two maxima (subsidiary maximum) for each item. Keep answers brief.
# method_notes: Absorption maximum after colour development in a photographic silver halide layer according to Use Example I
# Type: physicochemical
# conditions_used: pyrazolone coupling agents
One number for each entry, in nm.

// solved cases for Abs.max., first of two maxima (subsidiary maximum) follow
CCCCOP(=O)(CCCOc1cc(OCCCP(=O)(OCCCC)OCCCC)cc(C(=O)Nc2cccc(C(=O)NC3=NN(c4c(C)cc(OC)cc4Cl)C(=O)C3)c2)c1)OCCCC [(260)]	440
CCCCOP(=O)(CCCOc1cccc(C(=O)NC2=NN(c3c(Cl)cc(Cl)cc3Cl)C(=O)C2)c1)OCCCC [(237)]	432

Now consider a different compound.
## Task Returns the measured Abs.max., first of two maxima (subsidiary maximum) for the input compound. Input: CC(C)OP(=O)(CCCOc1cccc(C(=O)Nc2cccc(C(=O)NC3=NN(c4c(Cl)cc(Cl)cc4Cl)C(=O)C3)c2)c1)OC(C)C [(232)]
## Result 434

---

# method_notes: Absorption maximum after colour development in a photographic silver halide layer according to Use Example I
# Type: physicochemical
# conditions_used: pyrazolone coupling agents
quantity_measured: Abs.max., first of two maxima (subsidiary maximum)

In the examples that follow, each entry is paired with its recorded Abs.max., first of two maxima (subsidiary maximum).
CC(C)OP(=O)(CCCCCOc1cccc(C(=O)Nc2cccc(C(=O)NC3=NN(c4c(Cl)cc(Cl)cc4Cl)C(=O)C3)c2)c1)OC(C)C	434 nm
CCCCOP(=O)(CCCOc1cccc(C(=O)Nc2cccc(C(=O)NC3=NN(c4ccccc4)C(=O)C3)c2)c1)OCCCC	440 nm
CCCCC(CC)COP(=O)(CCCOc1cccc(NC2=NN(c3cccc(Cl)c3)C(=O)C2)c1)OCC(CC)CCCC (stereo not drawn)	428 nm

The following compounds each have a reported value; give each one's Abs.max., first of two maxima (subsidiary maximum).
1. CCCCOP(=O)(CCCOc1cc(OCCCP(=O)(OCCCC)OCCCC)cc(C(=O)Nc2cccc(C(=O)NC3=NN(c4c(Cl)cc(Cl)cc4Cl)C(=O)C3)c2)c1)OCCCC
2. CCCCOP(=O)(CCCOc1cc(OCCCP(=O)(OCCCC)OCCCC)cc(C(=O)Nc2cccc(C(=O)NC3=NN(c4cccc(Cl)c4)C(=O)C3)c2)c1)OCCCC
3. CCCCC(CC)COP(=O)(CCCOc1cccc(C(=O)Nc2ccc(C(=O)NC3=NN(c4c(Cl)cc(Cl)cc4Cl)C(=O)C3)cc2)c1)OCC(CC)CCCC (stereo not drawn)

## Result
["434 nm", "438 nm", "434 nm"]

---

# method_notes: Absorption maximum after colour development in a photographic silver halide layer according to Use Example I
# Assay type: physicochemical
# conditions_used: pyrazolone coupling agents
quantity_measured: Abs.max., first of two maxima (subsidiary maximum) (nm)
Answers are plain numbers, in nm.

CCCCOP(=O)(CCCOc1cc(OCCCP(=O)(OCCCC)OCCCC)cc(C(=O)Nc2cccc(C(=O)NC3=NN(c4nc5ccccc5s4)C(=O)C3)c2)c1)OCCCC	550
CCOP(=O)(CCCOc1cc(OCCCP(=O)(OCC)OCC)cc(C(=O)Nc2cccc(C(=O)NC3=NN(c4ccccc4)C(=O)C3)c2)c1)OCC	438

Here is another compound to look at.
## Task // Abs.max., first of two maxima (subsidiary maximum) lookup, key: CCCCOP(=O)(CCCOc1cc(OCCCP(=O)(OCCCC)OCCCC)cc(C(=O)Nc2ccc(Cl)c(NC3=NN(c4c(Cl)cc(Cl)cc4Cl)C(=O)C3)c2)c1)OCCCC
## Result 430

---

# method_notes: Absorption maximum after colour development in a photographic silver halide layer according to Use Example I
# Format: physicochemical
# conditions_used: pyrazolone coupling agents
Would you mind telling me the reported Abs.max., second of two maxima (absorption maximum) of each entry?
Numbers only, in nm.

// solved cases for Abs.max., second of two maxima (absorption maximum) follow
CCCCOP(=O)(CCCOc1cccc(C(=O)Nc2cccc(NC3=NN(c4ccccc4)C(=O)C3)c2)c1)OCCCC	530
CCCCOP(=O)(CCCOc1cc(OCCCP(=O)(OCCCC)OCCCC)cc(C(=O)Nc2cccc(C(=O)NC3=NN(c4c(Cl)cc(Cl)cc4OC)C(=O)C3)c2)c1)OCCCC	537

## Task Find the recorded Abs.max., second of two maxima (absorption maximum) belonging to CCCCC(CC)COP(=O)(CCCOc1cccc(C(=O)Nc2cccc(C(=O)NC3=NN(c4c(C)cc(C)cc4Cl)C(=O)C3)c2)c1)OCC(CC)CCCC (stereo not drawn) and report it.
## Result 536

---

# method_notes: Absorption maximum after colour development in a photographic silver halide layer according to Use Example I
# Format: physicochemical
quantity_measured: Abs.max. (single maximum) (nm)
Answers are plain numbers, in nm.

CCCCOP(=O)(CC(=O)Nc1cccc(NC(=O)CC(=O)C(C)(C)C)c1)OCCCC	436
CCCCCCOP(=O)(OCCCCCC)c1ccc(NC(=O)c2cccc(NC(=O)CC(=O)c3ccc(Cl)cc3)c2)cc1	449
CCOP(=O)(OCC)C(C)(C)NC(=O)c1cc(NC(=O)CC(=O)c2ccccc2)cc(C(=O)NC(C)(C)P(=O)(OCC)OCC)c1	440
CCOP(=O)(CCCOc1cccc(C(=O)Nc2cccc(C(=O)CC(=O)Nc3cc(C)ccc3OC)c2)c1)OCC	440
CCCCOP(=O)(CCCOc1cccc(NC(=O)CC(=O)c2ccccc2)c1)OCCCC	436
CCOP(=O)(CCCOc1cccc(NC(=O)c2ccc3ccccc3c2O)c1)OCC	704

Please supply Abs.max. (single maximum) for each of the following items, keeping them in order.
1. CCCCOP(=O)(CCCC)Nc1cccc(NC(=O)c2cc(NC(=O)CC(=O)c3ccccc3)ccc2Cl)c1 (stereo not shown)
2. CCCCOP(=O)(CCCc1ccc(NC(=O)C(Cl)C(=O)c2ccccc2)cc1)OCCCC (stereo not shown)

## Result
438
436

---

# method_notes: Absorption maximum after colour development in a photographic silver halide layer according to Use Example I
# Type: physicochemical
# conditions_used: pyrazolone coupling agents
Consider the following compounds; for each one, report its Abs.max., second of two maxima (absorption maximum).
Give bare numbers, in nm.

Example results:
CCCCOP(=O)(CCCOc1cc(OCCCP(=O)(OCCCC)OCCCC)cc(C(=O)Nc2cccc(C(=O)NC3=NN(c4nc5ccccc5s4)C(=O)C3)c2)c1)OCCCC [(258)]	580
CCCCC(CC)COP(=O)(CCCOc1cccc(C(=O)Nc2cccc(C(=O)NC3=NN(c4cccc(Cl)c4)C(=O)C3)c2)c1)OCC(CC)CCCC (stereo not drawn) [(256)]	534
CCOP(=O)(CCCc1ccc(NC2=NN(c3ccccc3)C(=O)C2)cc1)OCC [(407)]	527
CCOP(=O)(CCCOc1ccc(C(=O)Nc2ccc(C(=O)NC3=NN(c4c(Cl)cc(Cl)cc4Cl)C(=O)C3)cc2)cc1)OCC [(203)]	539
CCCCOP(=O)(CCCOc1cc(OCCCP(=O)(OCCCC)OCCCC)cc(C(=O)NC2=NN(c3c(C)c(Cl)c(OC)c(Cl)c3Cl)C(=O)C2)c1)OCCCC [(254)]	540

Now consider a different compound.
## Task Need Abs.max., second of two maxima (absorption maximum) of CCCCC(CC)COP(=O)(CCCOc1cc(OCCCP(=O)(OCC(CC)CCCC)OCC(CC)CCCC)cc(C(=O)Nc2ccc(C(=O)NC3=NN(c4c(Cl)cc(Cl)cc4Cl)C(=O)C3)cc2)c1)OCC(CC)CCCC (stereo not drawn) [(234)] , thanks.
## Result 540
